Species: Rattus norvegicus
Assay: Open TG-GATES - Regimen: Single
Type: toxicity, organism-based, Sprague-Dawley
Design: regimen Single, gender Male, age 6 weeks
Conditions: in vivo, po, 1000 mg/kg, 9 h, tissue Plasma, route gavage, dose level High
Assay metric: IP
Remember to follow the number with its unit.

Study these solved cases before continuing.
Compound: C[C@H](CS)C(=O)N1CCC[C@H]1C(=O)O
IP: 11 mg/dL
//
Compound: CCc1cc(C(N)=S)ccn1 [ETHIONAMIDE]
IP: 9.6 mg/dL
//
Compound: Clc1ccccc1CN1CCc2sccc2C1
IP: 10 mg/dL
//
Compound: O=C(O)c1cn(C2CC2)c2cc(N3CCNCC3)c(F)cc2c1=O
IP: 11 mg/dL

Continue with the compound presented below.
Recorded result, `O=C(O)c1cc(/N=N/c2ccc(S(=O)(=O)Nc3ccccn3)cc2)ccc1O` , IP: 8.6 mg/dL

* * *

Species on record: Rattus norvegicus
Experiment: Open TG-GATES - Regimen: Daily Repeat
Format: toxicity, organism-based, Sprague-Dawley
Set-up: regimen Daily Repeat, gender Male, age 6 weeks
Settings: in vivo, po, 0 mg/kg, […], tissue Blood, route gavage, dose level Control, time 7 day
Assay metric: Fbg (mg/dL)
State just the number; it will be interpreted in mg/dL.

Compound: Cn1c(=O)c2[nH]cnc2n(C)c1=O.O [THEOPHYLLINE]
Value reported: 305.4
--
Compound: NC(=O)N/N=C/c1ccc([N+](=O)[O-])o1 [NITROFURAZONE]
Value reported: 268
--
Compound: CCCC(CCC)C(=O)O [VALPROIC ACID]
Value reported: 210.8
--
Compound: CCc1cc(C(N)=S)ccn1 [ETHIONAMIDE]
Value reported: 218.4
--
Compound: O=C(O)c1cn(C2CC2)c2cc(N3CCNCC3)c(F)cc2c1=O [CIPROFLOXACIN]
Value reported: 230.2
--
Compound: O=C(O)c1cc(/N=N/c2ccc(S(=O)(=O)Nc3ccccn3)cc2)ccc1O [SULFASALAZINE]
Value reported: 223.4
--
Compound: CN(C)CCC=C1c2ccccc2CCc2ccccc21 [AMITRIPTYLINE]
Value reported: 302.6
--
Compound: NC(=O)N1c2ccccc2C=Cc2ccccc21 [CARBAMAZEPINE]
Value reported: 223
--
Compound: Clc1ccccc1CN1CCc2sccc2C1 [TICLOPIDINE]
Value reported: 224.2

Please find the next compound below.
Documented Fbg of COc1ccc2c(c1)c(CC(=O)O)c(C)n2C(=O)c1ccc(Cl)cc1 [INDOMETHACIN] : 223.6

* * *

Species: Rattus norvegicus
Experiment: Open TG-GATES - Regimen: Single
Format: toxicity, organism-based, Sprague-Dawley
Design: regimen Single, gender Male, age 6 weeks
Conditions: in vivo, po, 0 mg/kg, 3 h, tissue Liver, route gavage, dose level Control
Hi! Just check whether LIVER is below 10 g. Below gives true, equal or above gives false.

Reference set (6 entries):
Molecule: Cn1c(=O)c2[nH]cnc2n(C)c1=O.O
Class assignment: false

Molecule: CN(C)CCC=C1c2ccccc2CCc2ccccc21
Class assignment: true

Molecule: CSc1ccc2c(c1)N(CCC1CCCCN1C)c1ccccc1S2 (stereo unspecified)
Class assignment: false

Molecule: NC(=O)N/N=C/c1ccc([N+](=O)[O-])o1
Class assignment: true

Molecule: Clc1ccccc1CN1CCc2sccc2C1
Class assignment: true

Molecule: CCc1cc(C(N)=S)ccn1 [ETHIONAMIDE]
Class assignment: false

Moving on to the next molecule.
Is LIVER strictly under 10 g for the entry `O=C(O)c1cn(C2CC2)c2cc(N3CCNCC3)c(F)cc2c1=O` ?
true

* * *

Recorded PT for the following compounds
Species on record: Rattus norvegicus
Experiment: Open TG-GATES - Regimen: Single
Assay type: toxicity, organism-based, Sprague-Dawley
Set-up: regimen Single, gender Male, age 6 weeks
Details: in vivo, po, 0 mg/kg, 6 h, tissue Blood, route gavage, dose level Control
Write the value in s as a bare number.

Per the record, `CN(C)CCC=C1c2ccccc2CCc2ccccc21` has PT of 15.8

Field PT (entry `Clc1ccccc1CN1CCc2sccc2C1` ) reads 12

Record summary for `NC(=O)N/N=C/c1ccc([N+](=O)[O-])o1` : reported PT = 14.6

// field: PT; key: NC(=O)N1c2ccccc2C=Cc2ccccc21 [CARBAMAZEPINE] ; value = 12.5

The reported value for `Cn1c(=O)c2[nH]cnc2n(C)c1=O.O` in terms of PT is 15.6

The compound `C[C@H](CS)C(=O)N1CCC[C@H]1C(=O)O` showed PT equal to 11.8

* * *

Entries and their measured RALB follow.
Organism: Rattus norvegicus
Assay: Open TG-GATES - Regimen: Daily Repeat
Assay type: toxicity, organism-based, Sprague-Dawley
Set-up: regimen Daily Repeat, gender Male, age 6 weeks
Details: in vivo, po, 0 mg/kg, […], tissue Plasma, route gavage, dose level Control, time 28 day

Please review the following examples before continuing.
Compound: Cn1c(=O)c2[nH]cnc2n(C)c1=O.O [THEOPHYLLINE]
RALB: 3.1 g/dL

Compound: CSc1ccc2c(c1)N(CCC1CCCCN1C)c1ccccc1S2 (stereo not given) [THIORIDAZINE]
RALB: 4.1 g/dL

Compound: NC(=O)N/N=C/c1ccc([N+](=O)[O-])o1 [NITROFURAZONE]
RALB: 2.7 g/dL

Compound: COc1ccc(Cc2nccc3cc(OC)c(OC)cc23)cc1OC [PAPAVERINE]
RALB: 3.1 g/dL

Compound: COc1ccc2c(c1)c(CC(=O)O)c(C)n2C(=O)c1ccc(Cl)cc1 [INDOMETHACIN]
RALB: 4.3 g/dL

Compound: O=C(O)c1cn(C2CC2)c2cc(N3CCNCC3)c(F)cc2c1=O [CIPROFLOXACIN]
RALB: 4.1 g/dL

Compound: O=C(O)c1cc(/N=N/c2ccc(S(=O)(=O)Nc3ccccn3)cc2)ccc1O [SULFASALAZINE]
RALB: 3.4 g/dL

Compound: CCc1cc(C(N)=S)ccn1 [ETHIONAMIDE]
RALB: 4 g/dL

Compound: NC(=O)N1c2ccccc2C=Cc2ccccc21 [CARBAMAZEPINE]
RALB: 3.4 g/dL

Consider the record given below.
Form field RALB, entry Clc1ccccc1CN1CCc2sccc2C1 [TICLOPIDINE] : 3.6 g/dL

* * *

Quick reference: Lym of the listed items.
Species: Rattus norvegicus
Experiment: Open TG-GATES - Regimen: Single
Format: toxicity, organism-based, Sprague-Dawley
Parameters: regimen Single, gender Male, age 6 weeks
Settings: in vivo, po, 0 mg/kg, 3 h, tissue Blood, route gavage, dose level Control
Just the number please, in %, no unit attached.

# count of solved cases: 4
Compound: NC(=O)N1c2ccccc2C=Cc2ccccc21 [CARBAMAZEPINE]
Lym / %: 80
//
Compound: CSc1ccc2c(c1)N(CCC1CCCCN1C)c1ccccc1S2 (stereo not given)
Lym / %: 82.2
//
Compound: COc1ccc(Cc2nccc3cc(OC)c(OC)cc23)cc1OC
Lym / %: 80.6
//
Compound: NC(=O)N/N=C/c1ccc([N+](=O)[O-])o1
Lym / %: 79

Just so you know, measured Lym for `Clc1ccccc1CN1CCc2sccc2C1` came out at 73.2

* * *

Item-by-item account of Plat
Organism: Rattus norvegicus
Experiment: Open TG-GATES - Regimen: Daily Repeat
Assay type: toxicity, organism-based, Sprague-Dawley
Parameters: regimen Daily Repeat, gender Male, age 6 weeks
Details: in vivo, po, 0 mg/kg, […], tissue Blood, route gavage, dose level Control, time 28 day
Return type: number; implicit unit x10_4/uL.

See these solved cases before continuing.
Compound: CCc1cc(C(N)=S)ccn1 [ETHIONAMIDE]
Assay metric: Plat
Value reported: 116.1

Compound: CC(=O)Oc1ccccc1C(=O)O
Assay metric: Plat
Value reported: 116.7

Compound: COc1ccc2c(c1)c(CC(=O)O)c(C)n2C(=O)c1ccc(Cl)cc1
Assay metric: Plat
Value reported: 112.3

Compound: O=C(O)c1cn(C2CC2)c2cc(N3CCNCC3)c(F)cc2c1=O
Assay metric: Plat
Value reported: 107.5

Compound: NC(=O)N/N=C/c1ccc([N+](=O)[O-])o1
Assay metric: Plat
Value reported: 105

Kindly note the recorded Plat for `CN(C)CCC=C1c2ccccc2CCc2ccccc21` , which is 104.1

The reported Plat of the compound `COc1ccc(Cc2nccc3cc(OC)c(OC)cc23)cc1OC` was 101.3

Plat for `O=C(O)c1cc(/N=N/c2ccc(S(=O)(=O)Nc3ccccn3)cc2)ccc1O` is 98.7

* * *

Species: Rattus norvegicus
Test: Open TG-GATES - Regimen: Single
Type: toxicity, organism-based, Sprague-Dawley
Set-up: regimen Single, gender Male, age 6 weeks
Details: in vivo, po, 1000 mg/kg, 3 h, tissue Blood, route gavage, dose level High
Assay metric: MCH (pg)
Numbers only here, please. The scale is pg.

Examples with answers:
Compound: O=C(O)c1cn(C2CC2)c2cc(N3CCNCC3)c(F)cc2c1=O
Value reported: 21.7
--
Compound: O=C(O)c1cc(/N=N/c2ccc(S(=O)(=O)Nc3ccccn3)cc2)ccc1O
Value reported: 21.2
--
Compound: CCc1cc(C(N)=S)ccn1 [ETHIONAMIDE]
Value reported: 21.4
--
Compound: C[C@H](CS)C(=O)N1CCC[C@H]1C(=O)O
Value reported: 21.8

The recorded MCH for entry `Clc1ccccc1CN1CCc2sccc2C1` equals 21.4

These measurements were taken from ChEMBL document CHEMBL3885861.
